assay.target: T1, Peptide 8: Biotin-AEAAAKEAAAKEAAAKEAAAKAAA-Tyr-acid (N-terminal biotin; C-terminal acid)
T1 construct: control peptide without PC
T1 peptide: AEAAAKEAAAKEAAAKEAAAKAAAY
test.name: scFv ELISA
parameter: OD450 (OD450)
Please reply with the bare figure in OD450 and do not write the unit itself.

Example entries and their recorded answers appear below.
Dear colleague, I am looking for the recorded OD450 of the following binder: PcOxP_DB02_B06 (scFv, V domains shown, scFv in periplasmic extract) VH: EVQLLESGGGLVQPGGSLRLSCAASGFTFSDNYMEWVRQAPGKGLEWVAASRNKANDYTTEYADSVKGRFTISRDNSKNTLYLQMNSLRAEDTAVYYCARDYYGSSYWYFDVWGQGTLVTVSS VL: DIQMTQSPSSLSASVGDRVTITCTASESLYSSKHKVHYLAWYQQKPGKAPKLLIYGASNRYIGVPSRFSGSGSGTDFTLTISSLQPEDFATYYCTQFYSYPLTFGGGTKVEIK
0.04

Do the same for PcOxP_DB03_D11 (scFv, V domains shown, scFv in periplasmic extract) VH: EVQLLESGGGLVQPGGSLRLSCAASGFTFSDFYMEWVRQAPGKGLEWVAASRNKANDYTTEYADSVKGRFTISRDNSKNTLYLQMNSLRAEDTAVYYCARDYYGHSYWYFDVWGQGTLVTVSS VL: DIQMTQSPSSLSASVGDRVTITCTASESLYSSKHKVHYLAWYQQKPGKAPKLLIYGASSRYIGVPSRFSGSGSGTDFTLTISSLQPEDFATYYCAQFYEYPLTFGGGTKVEIK please
0.05

Pending binder:
Any idea what OD450 was measured for PcOxP_DB01_G11 (scFv, V domains shown, scFv in periplasmic extract) VH: EVQLLESGGGLVQPGGSLRLSCAASGFTFSDGYMEWVRQAPGKGLEWVAASRNKNNDYTTEYADSVKGRFTISRDNSKNTLYLQMNSLRAEDTAVYYCARDYFGSSYWYFDVWGQGTLVTVSS VL: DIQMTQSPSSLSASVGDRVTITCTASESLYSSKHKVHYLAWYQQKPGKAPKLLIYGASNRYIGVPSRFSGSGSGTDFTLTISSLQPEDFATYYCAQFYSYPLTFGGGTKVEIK ?
0.06

Reference source for all entries: patent US20250320312A1
